# TESTED_SYSTEM: OsSMF1 (Oryza sativa, UniProt Q6ZLB0 1-436)
# Sequence: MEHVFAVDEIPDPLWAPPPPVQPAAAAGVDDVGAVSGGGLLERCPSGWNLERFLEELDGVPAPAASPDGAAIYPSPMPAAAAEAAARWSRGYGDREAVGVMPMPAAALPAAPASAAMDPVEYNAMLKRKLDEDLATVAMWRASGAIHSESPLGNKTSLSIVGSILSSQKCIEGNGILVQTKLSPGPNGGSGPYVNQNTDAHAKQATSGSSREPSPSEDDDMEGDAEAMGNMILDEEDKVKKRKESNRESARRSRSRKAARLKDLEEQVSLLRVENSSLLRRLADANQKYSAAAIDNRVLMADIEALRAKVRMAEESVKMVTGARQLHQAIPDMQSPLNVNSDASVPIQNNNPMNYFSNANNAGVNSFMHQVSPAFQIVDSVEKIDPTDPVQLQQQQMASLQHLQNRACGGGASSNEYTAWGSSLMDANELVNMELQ
# PROTOCOL_DESCRIPTION: protein-binding microarray (RPBM); PBS, 2% BSA, 51.3 ng/ul salmon testes DNA, 50 uM zinc acetate, 200 nM TF, 25 C, 1 h; high values mean tight binding
# CONDITION_SUMMARY: protein: recombinant; tags: N-terminal polyhistidine and DsRed monomer fusion (pET32a); chain copies: 2; label: CyDye5-dUTP incorporated in the synthesized complementary strand; 3' TTTTT single-stranded linker to array surface; dsDNA, one strand shown
In all, about 39,000 sequences were measured (“fluorescence intensity (a.u.)”: median about 4,300, highest 2% from about 39,000 on). Only a selection was taken, and the highest values are over-represented in it overall.
MEASURED_ENDPOINT: binding signal

Worked cases, answers included:
SEQ_TEXT: TTTAATTATATTATCACTGACATGTGGGTCCCACTATATGCGGAGTCACCTAGTGCAG
TESTED_SYSTEM: OsSMF1 (Oryza sativa, UniProt Q6ZLB0 1-436)
RESULT: 4330 fluorescence intensity (a.u.)
//
SEQ_TEXT: AAAAGACTGGAATACGTGGCGAACAAACTTTATTACACAACGGAGTCACCTAGTGCAG
TESTED_SYSTEM: OsSMF1 (Oryza sativa, UniProt Q6ZLB0 1-436)
RESULT: 6740 fluorescence intensity (a.u.)
//
SEQ_TEXT: ATATTATATTAAATTTGTAGTTTTACGATAATATGGTAAACGGAGTCACCTAGTGCAG
TESTED_SYSTEM: OsSMF1 (Oryza sativa, UniProt Q6ZLB0 1-436)
RESULT: 25400 fluorescence intensity (a.u.)

response.value for CCAAAATGAGTTGAAATGAATTTTGTATGCATTTTATAAACGGAGTCACCTAGTGCAG (field: binding signal) = 6000 fluorescence intensity (a.u.)

The recorded binding signal for entry TTTATTACACAACGCAACTGGCCAGACTTTAGCGGGTCATCGGAGTCACCTAGTGCAG equals 46000 fluorescence intensity (a.u.)

Looking up TGGATCCGGCCCTGCATGTCCGTCCTCGCCGGTGGGCGCTCGGAGTCACCTAGTGCAG , I found its binding signal recorded as 41400 fluorescence intensity (a.u.)

The recorded binding signal for entry TCGGCATGGGCGGTGGCGCTGGCGCGTCCTCCGATCCCGTCGGAGTCACCTAGTGCAG equals 19900 fluorescence intensity (a.u.)

For record TTATGTTTGAATTTAAGTTTTGAGTTTTGTTGCGTGCGCACGGAGTCACCTAGTGCAG the listed binding signal is 28800 fluorescence intensity (a.u.)

// AATATGGATTATTACCAAGAATTTATCCGTTGTTTTGCTACGGAGTCACCTAGTGCAG : binding signal value = 40700 fluorescence intensity (a.u.)

# binding signal of CCACGCGGACACTGACACGTCATCATCGTGTTCGTTTCCTCGGAGTCACCTAGTGCAG = 39300 fluorescence intensity (a.u.)

Given item TTATTATTAGTAAATATGTAGTTTTACGATATTTAGTCTTCGGAGTCACCTAGTGCAG , the value recorded as its binding signal is 44400 fluorescence intensity (a.u.)

Data point: TCCCTCCTCCCCGTCGTCACAAGCCACGTCATCGATCCGCCGGAGTCACCTAGTGCAG ; binding signal = 40000 fluorescence intensity (a.u.)
